Molecular target: T1, PDZRN3_1, Q9UPQ7
T1 sequence (Q9UPQ7 244-349, limits assumed, looked up): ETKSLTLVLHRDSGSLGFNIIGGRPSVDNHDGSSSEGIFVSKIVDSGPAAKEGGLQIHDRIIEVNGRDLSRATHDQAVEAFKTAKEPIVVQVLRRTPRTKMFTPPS
Assay: holdup assay
Set-up: key: below the threshold = too weak to quantify, mostly under pKd 3.1 to 4
Settings: plain residues with an end cap or a label only (N-terminal biotin on a linker: ahx)
value type: pKd

Some solved entries appear below for comparison.
- binder: "PSASCAVTAA [PDLIM4, P50479;P50479-2]"
  measurement: "below the threshold"
- binder: "LSDPSVSTVV [GRIN1, Q05586;Q05586-2]"
  measurement: "below the threshold"
- binder: "TVICWPGSLV [LNX2, Q8N448]"
  measurement: 4.17
- binder: "NRKREIFSNF [NHERF2, Q15599]"
  measurement: "below the threshold"
- binder: "SDSSGQEYSL [KCTD3, Q9Y597]"
  measurement: "below the threshold"

We now examine a further binder.
Looking up RRRKRKRTYL [HPV49-L2, P36762] , I see its pKd listed as 3.51

Measured values drawn from paper PMC9482650 for this set.
